Reference source for all entries: ChEMBL document CHEMBL1201862

experiment_notes: Trypanosoma cruzi growth suppression in host cells – NIH3T3 host cells, beta-gal luminescence, confirmation (AID 2044);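 further: intracellular parasites grown in NIH/3T3 mouse fibroblasts as host cells; luminescent beta-galactosidase reporter signal from transgenic T. cruzi replicating inside host cells; inhibitors lower the luminescence signal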
Assay type: functional, cell-based
Calls of active or inactive are those of the source.
readout: EC50

Count: 7. Required value per item: EC50.
1. O=C(c1cc([N+](=O)[O-])cc([N+](=O)[O-])c1)N1CCCc2ccccc21
2. CC(C)(C)c1ccc(C(=O)CC(Sc2ccc(Cl)cc2)C(=O)O)cc1 (stereo not drawn)
3. O=C(C1CCCN(Cc2cccc(Cl)c2)C1)N1CCCCC1 (stereo not drawn)
4. CCN1C(=O)[C@H]2[C@@H](c3ccc(-c4cccc(Cl)c4)cc3)N[C@@](Cc3ccccc3)(C(=O)OC)[C@H]2C1=O
5. O=C(Nc1cccc(-c2cn3cccnc3n2)c1)c1ccco1
6. COc1ccccc1CN1C[C@@H]2C[C@@H](c3ccc(C)c(C)c3)N3CCC[C@@]23C1=O
7. O=C(CCN1CCN(Cc2ccccc2)CC1)Nc1cccc(Cl)c1

["< 100 nM (active)", "2020 nM (active)", "167 nM (active)", "2060 nM (active)", "941 nM (active)", "2260 nM (active)", "965 nM (active)"]

For O=C(N/N=C\c1ccc([N+](=O)[O-])o1)C1COc2ccccc2O1 (stereo not drawn) , what is its reported EC50? 532 nM (active)

* * *

Measured AC50 on Cytochrome P450 2C9 (Homo sapiens, UniProt P11712) follows.
Sequence (P11712 whole entry): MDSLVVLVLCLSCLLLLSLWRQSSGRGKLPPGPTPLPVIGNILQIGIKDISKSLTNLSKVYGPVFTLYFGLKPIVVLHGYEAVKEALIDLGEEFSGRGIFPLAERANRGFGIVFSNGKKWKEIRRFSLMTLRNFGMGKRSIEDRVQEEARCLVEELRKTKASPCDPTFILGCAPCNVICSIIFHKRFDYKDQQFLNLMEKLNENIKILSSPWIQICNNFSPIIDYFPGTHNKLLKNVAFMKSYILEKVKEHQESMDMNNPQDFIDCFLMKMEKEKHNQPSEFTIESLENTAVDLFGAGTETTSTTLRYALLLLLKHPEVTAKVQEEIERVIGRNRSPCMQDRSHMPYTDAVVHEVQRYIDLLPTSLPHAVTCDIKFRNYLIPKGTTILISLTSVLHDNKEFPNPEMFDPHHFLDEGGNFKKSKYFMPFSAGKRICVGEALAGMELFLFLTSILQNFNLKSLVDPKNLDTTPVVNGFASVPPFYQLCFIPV

Solved cases below.
> print(dat)
                                   compound  readout                   result
1    c1cncc(CNc2cc(-c3ccc4c(c3)OCO4)ncn2)c1     AC50  0.316 µM (inconclusive)
2  CCOC(=O)N1CCN(C(=O)CSCc2nc(-c3ccccc3F)oc2C)CC1     AC50   14.1 µM (inconclusive)
3   CCOc1ccc(-n2ccnc2SCC(=O)Nc2nnc(C)s2)cc1     AC50   11.2 µM (inconclusive)

Count: 6. Required value per item: AC50.
1. Cc1cccc(-c2nc(CN3CCCC(C(=O)NC4CCCCC4)C3)c(C)o2)c1 (stereo not given)
2. CC1(C)C(=O)C(c2ccccc2)=C2CN3C(=O)N(CCc4ccccc4)C(=O)C3(Cc3ccccc3)C=C21 (stereo not given)
3. Cn1sc(NC(=O)c2ccccc2Cl)nc1=O
4. O=C(CSCc1cccc(Cl)c1)N/N=C/c1ccc(OCC(=O)N2CCCCC2)cc1
5. CCCCn1nc2cc(C(=O)NCCCCc3ccccc3)ccc2c1OCC
6. O=[N+]([O-])c1cccc(/C(=N/N=C/c2ccccc2Br)C23CN4CN(CN(C4)C2)C3)c1

1: 28.2 µM (inconclusive); 2: 12.6 µM (inconclusive); 3: 17.8 µM (inconclusive); 4: 22.4 µM (inconclusive); 5: 31.6 µM (inconclusive); 6: 35.5 µM (inconclusive)

Enter reported AC50 observed with Cytochrome P450 2C9 (Homo sapiens, UniProt P11712) for COC(=O)C1CSC(C(=O)OC)N1C(=O)Nc1c(C)cccc1C (stereo not given) 25.1 µM (inconclusive)

* * *

measured_target: Carboxy-terminal domain RNA polymerase II polypeptide A small phosphatase 1 (Homo sapiens, UniProt Q9GZU7)
Sequence (Q9GZU7 whole entry, the tested form may be a part): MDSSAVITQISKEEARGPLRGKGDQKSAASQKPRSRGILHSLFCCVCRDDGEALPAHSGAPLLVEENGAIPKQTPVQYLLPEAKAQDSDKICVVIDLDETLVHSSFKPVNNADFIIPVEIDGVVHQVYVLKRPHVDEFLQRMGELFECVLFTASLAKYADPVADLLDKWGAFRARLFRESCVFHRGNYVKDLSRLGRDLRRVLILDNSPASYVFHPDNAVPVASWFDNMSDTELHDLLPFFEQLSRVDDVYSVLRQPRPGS
experiment_notes: CTDSP1 inhibitors, concentration-response, biochemical, absorbance readout, ultra-high-throughput screen actives (AID 540297)
Type: functional
Calls of active or inactive are those of the source.
readout: IC50

Solved cases below.
> print(dat)
                                   molecule  readout            result
1  CCOc1ccc(NC(=O)c2ccc(NC(=O)c3ccc(NC(N)=O)cc3)cc2)cc1     IC50  3.89 µM (active)
2  CN(c1ccccc1)S(=O)(=O)c1ccc(Cl)c(C(=O)OCC(=O)NCc2ccco2)c1     IC50  8.74 µM (active)
3  O=C(O)c1cccc(N2C(=O)C3CC=C(Cl)CC3C2=O)c1 (stereo not drawn)     IC50  10.3 µM (active)
4  Cc1cc(Cl)ccc1OCC(=O)OC(C)C(=O)N(C)C (stereo not drawn)     IC50  15.3 µM (active)
5  CCOC(=O)CN1C(=O)S/C(=C/c2ccc(OCc3ccc(C(=O)O)cc3)cc2)C1=O     IC50  3.74 µM (active)

Count: 3. Required value per item: IC50.
1. C[C@H]1CN([C@@H](C)CO)C(=O)c2cccc(NC(=O)c3ccncc3)c2O[C@H]1CN(C)C(=O)Nc1ccccc1
2. C=CC#CC1(O)CC(C)[N+](C)(C)CC1C (stereo not drawn)
3. COc1ccccc1-c1nn2c(-c3ccco3)nnc2s1

1: 13.8 µM (active); 2: 7.57 µM (active); 3: 12 µM (active)

* * *

System: SN12K1
experiment_notes: cells
Format: functional
condition_context: Homo sapiens
Active and inactive are the calls of the source.
Outcome field: choose from True for active, False for inactive

Recorded results for 3 molecules are shown here.
> print(dat)
                                   molecule  class.name
1                Cc1nc2ccccc2c(=O)n1CC(=O)O       False
2  CC(=O)O[C@H]1CC[C@@]2(C)[C@H](CC[C@@H]3[C@@H]2CC[C@]2(C)[C@@H](c4ccc(=O)oc4)C[C@H]4O[C@]342)C1        True
3  Nc1ccc2c(c1)C1=NNC(=O)CC1C2 (centres undefined)       False

Here is the next item to consider.
What classification did C=C1CC(OC)(C(OC)C(=O)N[C@H]2OCO[C@H]3C2O[C@H](C[C@@H](COC)OC)C(C)(C)C3OC)O[C@H](C)[C@@H]1C (some centres undefined) end up with in this test? True

* * *

measured_target: Voltage-dependent T-type calcium channel subunit alpha-1H (Homo sapiens, UniProt O95180);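 further: channel activity triggered by adding a high calcium stimulation buffer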
Sequence (O95180 whole entry): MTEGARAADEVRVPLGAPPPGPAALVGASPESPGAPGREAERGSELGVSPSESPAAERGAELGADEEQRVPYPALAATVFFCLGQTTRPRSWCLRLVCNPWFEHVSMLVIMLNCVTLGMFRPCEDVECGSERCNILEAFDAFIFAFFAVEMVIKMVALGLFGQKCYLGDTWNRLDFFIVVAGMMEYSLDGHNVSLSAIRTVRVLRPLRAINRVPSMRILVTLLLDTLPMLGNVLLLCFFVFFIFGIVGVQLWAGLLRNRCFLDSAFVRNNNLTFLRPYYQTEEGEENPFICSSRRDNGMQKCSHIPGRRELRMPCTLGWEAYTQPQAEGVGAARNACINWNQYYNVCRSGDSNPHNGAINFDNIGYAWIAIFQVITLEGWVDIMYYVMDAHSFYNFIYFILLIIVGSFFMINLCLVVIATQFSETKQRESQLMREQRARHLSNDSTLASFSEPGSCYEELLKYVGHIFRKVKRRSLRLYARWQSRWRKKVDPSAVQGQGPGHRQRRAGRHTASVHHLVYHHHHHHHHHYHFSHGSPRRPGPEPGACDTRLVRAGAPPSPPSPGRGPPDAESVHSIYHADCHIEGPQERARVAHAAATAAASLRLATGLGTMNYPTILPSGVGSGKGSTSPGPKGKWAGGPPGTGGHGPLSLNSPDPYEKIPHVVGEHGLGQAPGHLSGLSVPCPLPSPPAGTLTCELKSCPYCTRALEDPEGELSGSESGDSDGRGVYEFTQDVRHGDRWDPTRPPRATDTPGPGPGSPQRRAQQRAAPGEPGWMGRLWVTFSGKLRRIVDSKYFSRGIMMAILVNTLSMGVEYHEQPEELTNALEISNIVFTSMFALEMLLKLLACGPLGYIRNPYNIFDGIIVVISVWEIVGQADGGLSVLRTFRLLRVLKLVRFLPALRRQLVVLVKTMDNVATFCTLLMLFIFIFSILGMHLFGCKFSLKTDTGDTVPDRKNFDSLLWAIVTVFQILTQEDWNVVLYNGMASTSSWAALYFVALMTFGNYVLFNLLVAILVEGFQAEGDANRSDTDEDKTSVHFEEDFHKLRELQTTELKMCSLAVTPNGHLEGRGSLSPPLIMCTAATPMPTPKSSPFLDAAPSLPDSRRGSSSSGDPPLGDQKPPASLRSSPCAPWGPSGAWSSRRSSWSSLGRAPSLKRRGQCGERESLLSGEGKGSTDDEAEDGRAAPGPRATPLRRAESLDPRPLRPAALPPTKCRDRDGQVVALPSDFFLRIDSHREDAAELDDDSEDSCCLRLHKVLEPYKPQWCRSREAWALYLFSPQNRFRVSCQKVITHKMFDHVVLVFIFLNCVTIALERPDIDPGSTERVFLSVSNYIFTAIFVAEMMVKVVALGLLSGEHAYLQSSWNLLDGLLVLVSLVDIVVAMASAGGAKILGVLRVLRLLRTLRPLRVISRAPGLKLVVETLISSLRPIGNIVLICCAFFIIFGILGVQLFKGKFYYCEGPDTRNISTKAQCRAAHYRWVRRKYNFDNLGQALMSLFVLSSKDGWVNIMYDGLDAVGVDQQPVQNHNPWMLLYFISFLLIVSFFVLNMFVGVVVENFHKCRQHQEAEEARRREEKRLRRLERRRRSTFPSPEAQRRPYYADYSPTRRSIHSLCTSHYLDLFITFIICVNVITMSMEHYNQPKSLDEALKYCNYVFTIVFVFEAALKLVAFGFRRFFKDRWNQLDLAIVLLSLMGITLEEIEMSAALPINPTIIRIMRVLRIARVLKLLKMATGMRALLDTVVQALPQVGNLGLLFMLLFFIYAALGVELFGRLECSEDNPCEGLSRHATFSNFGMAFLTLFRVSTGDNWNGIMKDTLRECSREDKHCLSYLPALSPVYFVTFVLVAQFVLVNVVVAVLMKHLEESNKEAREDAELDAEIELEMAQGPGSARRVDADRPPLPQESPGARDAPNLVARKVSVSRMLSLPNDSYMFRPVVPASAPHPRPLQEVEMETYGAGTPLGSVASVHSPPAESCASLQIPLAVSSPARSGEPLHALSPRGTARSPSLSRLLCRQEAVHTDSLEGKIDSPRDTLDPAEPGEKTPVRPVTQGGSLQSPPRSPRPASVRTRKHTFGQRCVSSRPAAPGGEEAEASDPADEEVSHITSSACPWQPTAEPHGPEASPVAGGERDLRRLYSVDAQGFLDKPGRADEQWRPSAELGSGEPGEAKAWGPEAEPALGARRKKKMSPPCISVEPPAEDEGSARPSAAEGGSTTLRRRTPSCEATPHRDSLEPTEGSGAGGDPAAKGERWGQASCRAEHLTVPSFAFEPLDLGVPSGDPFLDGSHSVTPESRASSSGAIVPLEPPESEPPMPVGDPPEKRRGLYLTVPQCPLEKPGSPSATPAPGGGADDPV
Format: functional
Calls of active or inactive are those of the source.
readout: EC50

> print(dat)
                                   molecule  readout            result
1  Fc1ccc(N2CCN(c3ccc4c(C(F)(F)F)cc(C(F)(F)F)nc4n3)CC2)cc1     EC50  4.13 µM (active)

Count: 5. Required value per item: EC50.
1. CCCCN(CCCC)CP(=O)(c1ccccc1)c1ccccc1
2. Cc1cccc(-c2nc(CN3CCCC(C(=O)NC4CCCCC4)C3)c(C)o2)c1 (stereo unspecified)
3. CSc1cccc(NC(=O)CN(c2ccc(C)cc2C)S(C)(=O)=O)c1
4. Cc1ccc(-n2nc(C)c3c2NC(=O)CSC3c2ccc3c(c2)OCO3)cc1 (stereo unspecified)
5. O=C(CCn1nc(-c2ccccc2)c2ccccc2c1=O)N1CCN(c2ccccc2)CC1

["11.4 µM (active)", "2.14 µM (active)", "4.13 µM (active)", "6.71 µM (active)", "7.63 µM (active)"]

* * *

Could you please report measured AC50 for the items listed next?
measured_target: Cytochrome P450 2C19 (Homo sapiens, UniProt P33261)
Sequence (P33261 whole entry): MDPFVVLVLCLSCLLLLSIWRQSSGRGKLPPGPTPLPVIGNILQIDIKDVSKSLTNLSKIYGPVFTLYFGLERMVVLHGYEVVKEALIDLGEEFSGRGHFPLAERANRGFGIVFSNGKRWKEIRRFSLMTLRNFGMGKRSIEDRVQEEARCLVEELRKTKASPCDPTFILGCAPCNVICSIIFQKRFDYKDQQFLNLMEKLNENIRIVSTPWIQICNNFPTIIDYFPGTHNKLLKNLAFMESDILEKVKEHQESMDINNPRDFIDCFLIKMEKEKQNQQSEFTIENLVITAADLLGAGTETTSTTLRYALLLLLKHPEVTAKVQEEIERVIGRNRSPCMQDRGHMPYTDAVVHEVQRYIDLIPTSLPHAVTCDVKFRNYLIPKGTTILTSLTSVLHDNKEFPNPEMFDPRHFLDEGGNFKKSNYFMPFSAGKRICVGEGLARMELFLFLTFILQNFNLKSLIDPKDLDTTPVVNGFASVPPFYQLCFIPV
experiment_notes: Cytochrome panel assay with activity outcomes. Panel member name: p450-cyp2c19 Compounds with AC50 equal or less than 10 uM are considered active
Format: functional
condition_context: read-out: AC50

Solved cases below.
> print(dat)
                                   compound                  result
1  O=P(Nc1c(Cl)cccc1Cl)(c1ccccc1)c1nc2c(s1)CCCC2 (stereo unspecified)    20 µM (inconclusive)
2  CS(=O)(=O)N1CCCC(C(=O)N2CCc3ccccc3C2)C1 (stereo unspecified)  35.5 µM (inconclusive)
3  CCOc1ccccc1Oc1c(C)oc2cc(OC(=O)c3ccco3)ccc2c1=O  3.16 µM (inconclusive)
4  O=C(c1ccncc1)N1CCC2(CC1)CCN(c1ccccc1)CC2  39.8 µM (inconclusive)
5      COc1ccccc1CNc1cc(-c2cccc(C#N)c2)ncn1  6.31 µM (inconclusive)

Please turn your attention to the following entry.
For CCOC(=O)N1CCN(C(=O)c2ccc(OC)c(OC)c2)CC1 , what is its reported AC50? 25.1 µM (inconclusive)

* * *

System: Vero
experiment_notes: viability of Vero cells under compound – cytotoxicity control for flavivirus capping enzyme inhibitors (AID 588742)
Format: functional
condition_context: Chlorocebus sabaeus
Calls of active or inactive are those of the source.
Could you please report measured CC50 for the items listed next?

> print(dat)
                                   compound            result
1  Cc1cccc(CS(=O)(=O)c2ncc(Cl)c(C(=O)Nc3nnc(C(C)C)s3)n2)c1  25.6 µM (active)
2  COc1ccc(Nc2ccc3c(c2)=NC2(CCCCC2)[N+]=3[O-])cc1  10.8 µM (active)
3  COc1ccc(/N=c2\oc3c(OC)cccc3cc2C(=O)NCc2ccco2)c(OC)c1  > 40 µM (active)

Please turn your attention to the following entry.
For Cc1[nH]n(-c2ncc(-c3ccc(Cl)cc3)s2)c(=O)c1C(c1ccc(Cl)cc1)C(C#N)C#N (centres undefined) , what is its reported CC50? > 40 µM (active)
